# Test system: UO-31 renal
# MEASUREMENT_DESCRIPTION: NCI-60 one-dose screen, 48 h (100 = growth as untreated, 0 = no growth, -100 = all killed)
# TEST_CONDITIONS: 10 µM unless noted
This is part of a sample that, as a whole, favours compounds with a hit. Of some 83,000 tested, about 20% had one in any assay.
Hi! Could you tag entries with growth below 50% as True, and those at or above as False? Much appreciated.

Look over these answered cases.
**Q:** In plain terms, does Cc1nc2sc(C(=O)Nc3cccc4ccccc34)c(N)c2cc1C(=O)c1ccccc1 come in under 50% for growth?
**A:** True

**Q:** In plain terms, does CN1CC(c2ccc(Br)cc2)C(C(=O)c2ccc(Br)cc2)C12C(=O)Nc1ccccc12 (stereo not given) come in under 50% for growth?
**A:** True

**Q:** In plain terms, does COc1ccc(C(O)c2cc3c(N)c(C(=O)Nc4cccc5ccccc45)sc3nc2C)cc1 (stereo not given) come in under 50% for growth?
**A:** True

**Q:** In plain terms, does Cc1ccc(S(=O)(=O)OC[C@]23CCC(C)(C)C[C@H]2C2=CC[C@@H]4[C@@]5(C)CCCNC(C)(C)[C@@H]5CC[C@@]4(C)[C@]2(C)CC3)cc1 come in under 50% for growth?
**A:** False

**Q:** In plain terms, does CN(C)Cc1cc(C(C)(C)C)cc(Br)c1O come in under 50% for growth?
**A:** False

More entries:
**Q:** In plain terms, does Clc1ccc(Nc2nnc(CNc3ccccc3)c3ccccc23)cc1 come in under 50% for growth?
**A:** True

**Q:** In plain terms, does O=C(Cc1ccc(/C=C/C(=O)c2ncc[nH]2)cc1)Nc1cc(F)c(F)c(F)c1 come in under 50% for growth?
**A:** True

**Q:** In plain terms, does O=c1ccc2ccc(OCCN3CCCCC3)cc2o1 come in under 50% for growth?
**A:** False

**Q:** In plain terms, does CC(=O)N1N=C(c2ccc(Nc3nc(Nc4ccc(F)cc4)nc(Nc4ccc(F)cc4)n3)cc2)CC1c1ccc(N(C)C)cc1 (stereo not given) come in under 50% for growth?
**A:** True

**Q:** In plain terms, does N#CC1=C(N)Oc2c(sc3c(F)cccc23)C1c1ccc([N+](=O)[O-])cc1 (stereo not given) come in under 50% for growth?
**A:** True

**Q:** In plain terms, does O=C1/C(=C/c2ccccn2)SC(=S)N1N1CCOCC1 come in under 50% for growth?
**A:** False

**Q:** In plain terms, does COc1ccc(C2CC(n3ccnc3)c3cc(OC)c(OC)c(OC)c32)cc1O (stereo not given) come in under 50% for growth?
**A:** False

**Q:** In plain terms, does Clc1cccc(C2Cc3cnccc3-c3[nH]c4ccncc4c32)c1 (stereo not given) come in under 50% for growth?
**A:** True

**Q:** In plain terms, does Cc1cc(NCCCNc2ccnc3cc(Cl)ccc23)nc(Nc2ccc(C(=O)N3CCCCC3)cc2)n1 come in under 50% for growth?
**A:** False

**Q:** In plain terms, does COc1ccc(C=Nc2c(C(=O)Nc3cccc(Cl)c3C)sc3nc(C)c(C(=O)/C=C/c4ccc(OC)cc4)cc23)cc1 come in under 50% for growth?
**A:** True

**Q:** In plain terms, does CCOC(=O)c1cnn(CC(C)O)c1NC(=O)NCc1cccc(F)c1 (stereo not given) come in under 50% for growth?
**A:** False

**Q:** In plain terms, does C=CN(C(=O)N1CCN(c2cc3c(cc2F)c(=O)c(C(=O)O)cn3C2CC2)CC1)c1nc(-c2ccccc2)cs1 come in under 50% for growth?
**A:** False

**Q:** In plain terms, does Cn1c(=O)[nH]c(=O)c2nc3c(nc21)-c1ccccc1C3=O come in under 50% for growth?
**A:** False

**Q:** In plain terms, does CC(=O)c1sc(-c2ccc(F)cc2)cc1O come in under 50% for growth?
**A:** False

**Q:** In plain terms, does COc1ccc2cc(-c3nc4ccc(C)cn4c3NCc3ccco3)c(=O)[nH]c2c1 come in under 50% for growth?
**A:** True
